Assay: Phase 1b study in female adults with cystitis, plasma PK
Type: in vivo, human
Settings: female, human, plasma, po, 450 mg, Day 1; 450 mg po (n = 10); mean; read-out: AUC0-12
measured_metric: AUC(0-t) (ng·h/mL)

>>> reported_value("CN(C)c1cc(CNCC(C)(C)C)c(O)c2c1C[C@H]1C[C@H]3[C@H](N(C)C)C(O)=C(C(N)=O)C(=O)[C@@]3(O)C(O)=C1C2=O [Compound 1]")
6850

* * *

Tested on: K. pneumoniae ESBL+
Test: In vitro MIC, 2010 surveillance isolates
Type: cell-based, Klebsiella pneumoniae
Conditions: Asia/Pac; N=124
MIC90 overview
measured_metric: MIC90

>>> reported_value("CO/N=C(\\C(=O)N[C@@H]1C(=O)N2C(C(=O)[O-])=C(C[N+]3(C)CCCC3)CS[C@H]12)c1csc(N)n1 [Cefepime]")
"> 16 µg/mL"
>>> reported_value("C[C@@H](O)[C@H]1C(=O)N2C(C(=O)O)=C(SCCN=CN)C[C@H]12")
"> 8 µg/mL"
>>> reported_value("C[C@H]1COc2c(N3CCN(C)CC3)c(F)cc3c(=O)c(C(=O)O)cn1c23")
"> 4 µg/mL"

* * *

Experiment: Phase 1b study in female adults with cystitis, plasma PK
Assay type: in vivo, human
Conditions: female, human, plasma, oral, 450 mg, plasma, Day 1, PO450; read-out: Cmax, Mean
measured_metric: Cmax

>>> reported_value("CN(C)c1cc(CNCC(C)(C)C)c(O)c2c1C[C@H]1C[C@H]3[C@H](N(C)C)C(O)=C(C(N)=O)C(=O)[C@@]3(O)C(O)=C1C2=O")
"987 ng/mL"

* * *

Assay: Phase 1b study in female adults with cystitis, plasma PK
Type: in vivo, human
Conditions: female, human, plasma, oral, 300 mg, plasma, Day 5, IV_PO300; read-out: AUC(0-24 hrs), Geo. Mean
measured_metric: AUC(0-t)

>>> reported_value("CN(C)c1cc(CNCC(C)(C)C)c(O)c2c1C[C@H]1C[C@H]3[C@H](N(C)C)C(O)=C(C(N)=O)C(=O)[C@@]3(O)C(O)=C1C2=O")
"9550 ng·h/mL"

* * *

Experiment: Phase 1b study in female adults with cystitis, plasma PK
Format: in vivo, human
Details: female, human, plasma, oral, 300 mg, plasma, Day 5, PO300; read-out: Cmax, Mean
measured_metric: Cmax (ng/mL)

>>> reported_value("CN(C)c1cc(CNCC(C)(C)C)c(O)c2c1C[C@H]1C[C@H]3[C@H](N(C)C)C(O)=C(C(N)=O)C(=O)[C@@]3(O)C(O)=C1C2=O")
1120

* * *

System: MR CoNS
Assay: In vitro MIC, 2010 surveillance isolates
Assay type: cell-based, Coagulase-Negative Staphylococcus
Details: N America; CLSI breakpoints
Known % R (resistance) of a selection of compounds
measured_metric: % R (resistance)

>>> reported_value("CO/N=C(\\C(=O)N[C@@H]1C(=O)N2C(C(=O)O)=C(CSc3nc(=O)c(=O)[nH]n3C)CS[C@H]12)c1csc(N)n1")
"100%"
>>> reported_value("CN[C@H](CC(C)C)C(=O)N[C@H]1C(=O)N[C@@H](CC(N)=O)C(=O)N[C@H]2C(=O)N[C@H]3C(=O)N[C@H](C(=O)N[C@H](C(=O)O)c4cc(O)cc(O)c4-c4cc3ccc4O)[C@H](O)c3ccc(c(Cl)c3)Oc3cc2cc(c3O[C@@H]2O[C@H](CO)[C@@H](O)[C@H](O)[C@H]2O[C@H]2C[C@](C)(N)[C@H](O)[C@H](C)O2)Oc2ccc(cc2Cl)[C@H]1O")
"0%"
>>> reported_value("C[C@H]1c2cccc(O)c2C(=O)C2=C(O)[C@]3(O)C(=O)C(C(N)=O)=C(O)[C@@H](N(C)C)[C@@H]3[C@@H](O)[C@@H]21")
"1.3%"
>>> reported_value("C[C@H]1COc2c(N3CCN(C)CC3)c(F)cc3c(=O)c(C(=O)O)cn1c23")
"64.9%"

All figures here come from patent US10238670B2.
